Source: the Human Domainome abundance scans (Beltran et al. 2025)

B1: KAT8 regulatory NSL complex subunit 2, residues 28 to 91; numbered along this chain, Q9H9L4 (parent)
chain: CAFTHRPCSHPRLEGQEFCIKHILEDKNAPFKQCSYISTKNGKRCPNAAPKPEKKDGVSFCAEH

- Variants of: B1
- Experimental Details: abundance fitness (aPCA) (normalised: wild type 0, dead -1); higher = more abundant; growth selection in yeast, the domain comes from the species named
- Protocol Conditions: Homo sapiens
# maps each entry to its abundance fitness

Example variants with recorded abundance fitness:
Incoming: For the variant CAFTHRPCSHPRLEGQEFCIKHCLEDKNAPFKQCSYISTKNGKRCPNAAPKPEKKDGVSFCAEH [I23C] , what abundance fitness is on record?
Outgoing: -0.154

Incoming: For the variant CAFTHRPCSHPRLEGQEFCIKHILEDKNAPFKQVSYISTKNGKRCPNAAPKPEKKDGVSFCAEH [C34V] , what abundance fitness is on record?
Outgoing: -0.541

Incoming: For the variant CAFTHRPCSHPRLEGQEFCIKHILEDKNAQFKQCSYISTKNGKRCPNAAPKPEKKDGVSFCAEH [P30Q] , what abundance fitness is on record?
Outgoing: -0.279

Incoming: For the variant CAFTHRPCSHPRLEGQEFCIKHILEDKNAPFKQGSYISTKNGKRCPNAAPKPEKKDGVSFCAEH [C34G] , what abundance fitness is on record?
Outgoing: -0.339

Incoming: For the variant CAFTHRPCSHPRLEGQEFTIKHILEDKNAPFKQCSYISTKNGKRCPNAAPKPEKKDGVSFCAEH [C19T] , what abundance fitness is on record?
Outgoing: -0.908

Incoming: For the variant CAFTHRPCSHPRPEGQEFCIKHILEDKNAPFKQCSYISTKNGKRCPNAAPKPEKKDGVSFCAEH [L13P] , what abundance fitness is on record?
Outgoing: -0.86

Incoming: For the variant CAFTHRPCSHPRLEGQEFCIKHILEDKNAPFKQCSYISTKNGKRCPNAAPKPEKKDGVQFCAEH [S59Q] , what abundance fitness is on record?
Outgoing: -0.045

Incoming: For the variant CAFTHRPCSHPRLEGQEFCIKHILEDKNAPFKQCSYISTKNGKRCPNAAPKPEKKDGFSFCAEH [V58F] , what abundance fitness is on record?
Outgoing: -0.063

More entries:
Incoming: For the variant CAFTHRPCSHPRLEGQEFCIKHILEDKNAPFKQCSYISTKNGKRCPNAARKPEKKDGVSFCAEH [P50R] , what abundance fitness is on record?
Outgoing: -0.106

Incoming: For the variant CAFTHRPCSVPRLEGQEFCIKHILEDKNAPFKQCSYISTKNGKRCPNAAPKPEKKDGVSFCAEH [H10V] , what abundance fitness is on record?
Outgoing: -0.149

Incoming: For the variant CAFTHRPCSHPRLEGQEFCIKHIFEDKNAPFKQCSYISTKNGKRCPNAAPKPEKKDGVSFCAEH [L24F] , what abundance fitness is on record?
Outgoing: -0.195

Incoming: For the variant CAFTHRPCSHPRLEGQEFCIKHIPEDKNAPFKQCSYISTKNGKRCPNAAPKPEKKDGVSFCAEH [L24P] , what abundance fitness is on record?
Outgoing: -0.134
